All figures here come from ChEMBL document CHEMBL4390674.

ASSAY_TARGET: 5-hydroxytryptamine receptor 2A (Homo sapiens, UniProt P28223)
Sequence (P28223 whole entry): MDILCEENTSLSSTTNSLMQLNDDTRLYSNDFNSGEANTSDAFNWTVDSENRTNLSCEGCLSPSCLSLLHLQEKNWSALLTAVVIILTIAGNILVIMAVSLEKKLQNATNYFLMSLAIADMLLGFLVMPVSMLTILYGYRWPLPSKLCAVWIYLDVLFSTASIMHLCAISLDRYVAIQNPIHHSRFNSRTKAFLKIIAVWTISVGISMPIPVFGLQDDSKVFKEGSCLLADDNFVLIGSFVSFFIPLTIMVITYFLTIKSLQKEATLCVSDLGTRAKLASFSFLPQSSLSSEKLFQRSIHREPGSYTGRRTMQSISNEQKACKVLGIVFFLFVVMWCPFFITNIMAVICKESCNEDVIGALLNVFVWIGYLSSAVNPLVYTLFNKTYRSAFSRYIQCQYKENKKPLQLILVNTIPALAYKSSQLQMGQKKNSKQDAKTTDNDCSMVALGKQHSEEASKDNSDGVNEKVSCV
ASSAY_PROCEDURE: Displacement of [3H]-Ketanserin from 5HT2A receptor (unknown origin) measured after 90 mins by microbeta scintillation counting method
MEASUREMENT_KIND: Ki (µM)
Express it in µM; write the number only.

Below, 2 compounds whose answers are already recorded.
[
  {
    "SMI": "Cc1cc(Oc2nccc3occc23)ccc1-c1c(C)ncc2nccn12",
    "ASSAY_TARGET": "5-hydroxytryptamine receptor 2A (Homo sapiens, UniProt P28223)",
    "NUMERIC_READOUT": 4.9
  },
  {
    "SMI": "Cc1ncc2nccn2c1-c1ccc(Oc2nccc3occc23)cc1C(F)(F)F",
    "ASSAY_TARGET": "5-hydroxytryptamine receptor 2A (Homo sapiens, UniProt P28223)",
    "NUMERIC_READOUT": 8.7
  }
]

Consider the additional compound presented here.
Input: Fill blank: measured Ki of the compound `FC(F)(F)c1cc(Oc2nccc3ccsc23)ccc1-c1cccc2nccn12` is ____.
Output: 3.4

* * *

ASSAY_TARGET: Alpha-2A adrenergic receptor (Homo sapiens, UniProt P08913)
Sequence (P08913 whole entry): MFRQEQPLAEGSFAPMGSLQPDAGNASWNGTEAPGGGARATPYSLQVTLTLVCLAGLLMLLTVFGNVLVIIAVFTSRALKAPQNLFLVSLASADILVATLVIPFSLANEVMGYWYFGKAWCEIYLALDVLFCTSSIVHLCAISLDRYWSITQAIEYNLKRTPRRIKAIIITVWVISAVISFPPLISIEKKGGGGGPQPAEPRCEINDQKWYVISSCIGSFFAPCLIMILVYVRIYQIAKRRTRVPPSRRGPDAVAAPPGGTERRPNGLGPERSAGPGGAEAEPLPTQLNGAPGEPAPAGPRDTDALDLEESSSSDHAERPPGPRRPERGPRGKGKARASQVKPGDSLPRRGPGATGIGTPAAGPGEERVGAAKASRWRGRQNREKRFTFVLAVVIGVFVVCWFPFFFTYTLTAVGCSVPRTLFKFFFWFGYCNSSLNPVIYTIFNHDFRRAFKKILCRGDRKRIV
ASSAY_PROCEDURE: Displacement of [3H]-rauwolscine from recombinant human alpha2A adrenergic receptor stably expressed in MDCK cells measured after 90 mins by microbeta scintillation counting method
MEASUREMENT_KIND: pKi
Give only the number. pKi is defined as minus log10 of concentration in molar units.

Below, 3 molecules whose answers are already recorded.
[
  {
    "SMI": "FC(F)(F)c1cc(Oc2nccc3occc23)ccc1-c1cccc2nccn12",
    "pKi": 5.29
  },
  {
    "SMI": "Cc1cc(Oc2nccc3occc23)ccc1-c1c(C)ncc2nccn12",
    "pKi": 5.47
  },
  {
    "SMI": "Cc1ncc2nccn2c1-c1ccc(Oc2nccc3occc23)cc1C(F)(F)F",
    "pKi": 5.17
  }
]

Consider the additional molecule presented here.
Input: Fill blank: measured pKi of the molecule `FC(F)(F)c1cc(Oc2nccc3ccsc23)ccc1-c1cccc2nccn12` is ____.
Output: 5.59

* * *

The following compounds are shown together with reported pKi values.
ASSAY_TARGET: Alpha-1B adrenergic receptor (Homo sapiens, UniProt P35368)
Sequence (P35368 whole entry): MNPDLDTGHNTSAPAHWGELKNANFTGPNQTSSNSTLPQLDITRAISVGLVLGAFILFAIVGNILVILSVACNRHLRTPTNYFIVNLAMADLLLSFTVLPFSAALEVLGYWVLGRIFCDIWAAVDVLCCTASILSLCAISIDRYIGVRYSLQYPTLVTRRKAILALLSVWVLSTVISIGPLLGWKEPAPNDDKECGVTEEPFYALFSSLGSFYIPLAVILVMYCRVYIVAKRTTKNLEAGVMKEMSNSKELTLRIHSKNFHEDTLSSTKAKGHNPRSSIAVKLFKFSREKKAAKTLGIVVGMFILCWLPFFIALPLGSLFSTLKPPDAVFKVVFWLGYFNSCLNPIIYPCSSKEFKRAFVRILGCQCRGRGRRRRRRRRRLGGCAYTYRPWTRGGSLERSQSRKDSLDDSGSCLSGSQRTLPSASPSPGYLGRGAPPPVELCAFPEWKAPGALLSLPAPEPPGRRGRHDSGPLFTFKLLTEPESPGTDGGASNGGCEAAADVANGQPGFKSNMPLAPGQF
ASSAY_PROCEDURE: Displacement of [3H]-prazosin from recombinant human alpha1B adrenergic receptor transiently expressed in HEKT cells measured after 90 mins by microbeta scintillation counting method
Give only the number. pKi is defined as minus log10 of concentration in molar units.

[
  {
    "SMI": "Cc1cc(Oc2nccc3occc23)ccc1-c1c(C)ncc2nccn12",
    "ASSAY_TARGET": "Alpha-1B adrenergic receptor (Homo sapiens, UniProt P35368)",
    "pKi": 5.04
  },
  {
    "SMI": "Cc1ncc2nccn2c1-c1ccc(Oc2nccc3occc23)cc1C(F)(F)F",
    "ASSAY_TARGET": "Alpha-1B adrenergic receptor (Homo sapiens, UniProt P35368)",
    "pKi": 5.06
  }
]

Input: Fill blank: measured pKi of the compound `FC(F)(F)c1cc(Oc2nccc3ccsc23)ccc1-c1cccc2nccn12` is ____.
Output: 5.32

Input: Fill blank: measured pKi of the compound `FC(F)(F)c1cc(Oc2nccc3occc23)ccc1-c1cccc2nccn12` is ____.
Output: 5.13
